Organism: Rattus norvegicus
Assay method text: Toxicity in Sprague-Dawley rat assessed as catalepsy at 10 times MED assessed as time required to reach peak effect
Assay type: organism-based
Measurement context: in vivo
Value kind: Time
I'd appreciate it if you wrote the number followed by its unit.

Molecule | Time
Cl.O[C@]1(c2ccsc2)CCN2C[C@@H]3c4ccccc4CCc4cccc(c43)[C@H]2C1 (racemic) | 6 h
COc1ccc([C@@]2(O)CCN3C[C@@H]4c5ccccc5CCc5cccc(c54)[C@H]3C2)cc1.Cl (racemic) | 6 h
COc1ccccc1[C@@]1(O)CCN2C[C@@H]3c4ccccc4CCc4cccc(c43)[C@H]2C1.Cl (racemic) | 4 h

Data request: Which Time value is on record for COc1ccc([C@@]2(O)CCN3C[C@@H]4c5ccccc5CCc5cccc(c54)[C@H]3C2)c(OC)c1.Cl (racemic) ?
Data returned: 6 h

Reference source for all entries: ChEMBL document CHEMBL3244311
